Test: Pharmacokinetic study of Compound A alone and in combination with Indinavir in healthy human males (Example 11)
Assay type: in vivo
Conditions: male, human, plasma, po, 400 mg Compound A + 800 mg IDV (Indinavir) co-administered, single oral dose, fasted, n=6; plasma 24 hours after dosing; read-out: C24 hrs
MEASURED_QUANTITY: concentration at 24 h (nM)
Just the number please, in nM, no unit attached.

Task: Please report the measured concentration at 24 h for CC(C)(C)NC(=O)[C@@H]1CN(Cc2cc3ccccc3o2)CCN1C[C@@H](O)C[C@@H](Cc1ccccc1)C(=O)N[C@H]1c2ccccc2C[C@H]1O [Compound A]
Output: 20

###

Test: Pharmacokinetic study of Compound A alone and in combination with Indinavir in healthy human males (Example 11)
Format: in vivo
Conditions: male, human, plasma, po, 400 mg Compound A + 800 mg IDV (Indinavir) co-administered, single oral dose, fasted, n=6; arithmetic mean
MEASURED_QUANTITY: Tmax (h)
Respond numerically; units are h and should not be typed.

Task: Fill in Tmax for record CC(C)(C)NC(=O)[C@@H]1CN(Cc2cc3ccccc3o2)CCN1C[C@@H](O)C[C@@H](Cc1ccccc1)C(=O)N[C@H]1c2ccccc2C[C@H]1O [Compound A]
Output: 2.5

###

Test: Pharmacokinetic study of Compound A in combination with Indinavir with and without fasting (Example 12)
Assay type: in vivo
Details: male, human, plasma, oral, 600 mg Compound A (tablets) + 666 mg IDV (Indinavir), fasted, n=7; plasma 24 hours after dosing; read-out: C24 hrs
MEASURED_QUANTITY: concentration at 24 h (nM)
Report as a plain number; the unit nM is understood.

Task: Check the records and state concentration at 24 h for CC(C)(C)NC(=O)[C@@H]1CN(Cc2cc3ccccc3o2)CCN1C[C@@H](O)C[C@@H](Cc1ccccc1)C(=O)N[C@H]1c2ccccc2C[C@H]1O
Output: 37

###

Test: Pharmacokinetic study of Compound A in healthy human males (Example 10)
Assay type: in vivo
Settings: male, plasma, po, 800 mg, 800 mg single oral dose, suspension of sulfate salt, fasted, mean of 6 subjects (CV %)
Protocol: A double-blind, single-rising dose, alternating two-panel, four-period, placebo-controlled study was conducted for Compound A in healthy adult males in the fasted state. […] The safety of the subjects was monitored prior and subsequent to dosing by clinical adverse event reporting, measurement of vital signs, physical examinations, blood and urine laboratory safety tests, and ECGs. […]
MEASURED_QUANTITY: AUC (µM·h)
Form entry: value (µM·h) — number only.

Task: Give the reported AUC for this molecule. CC(C)(C)NC(=O)[C@@H]1CN(Cc2cc3ccccc3o2)CCN1C[C@@H](O)C[C@@H](Cc1ccccc1)C(=O)N[C@H]1c2ccccc2C[C@H]1O [Compound A]
Output: 3.09

###

Experiment: Pharmacokinetic study of Compound A in healthy human males (Example 10)
Format: in vivo
Details: male, plasma, po, 800 mg, 800 mg single oral dose, suspension of sulfate salt, fasted, mean of 6 subjects
MEASURED_QUANTITY: Tmax (h)
Reply numerically in h, unit not repeated.

Task: Supply recorded Tmax for CC(C)(C)NC(=O)[C@@H]1CN(Cc2cc3ccccc3o2)CCN1C[C@@H](O)C[C@@H](Cc1ccccc1)C(=O)N[C@H]1c2ccccc2C[C@H]1O here.
Output: 2.6

###

Experiment: Pharmacokinetic study of Compound A alone and in combination with Indinavir in healthy human males (Example 11)
Format: in vivo
Conditions: male, human, plasma, po, 2000 mg, 2000 mg single oral dose, suspension of sulfate salt, fasted, n=8; plasma 12 hours after dosing; read-out: C12 rs
MEASURED_QUANTITY: concentration at 12 h (nM)
A number alone suffices; assume nM.

Task: Tell me measured concentration at 12 h for CC(C)(C)NC(=O)[C@@H]1CN(Cc2cc3ccccc3o2)CCN1C[C@@H](O)C[C@@H](Cc1ccccc1)C(=O)N[C@H]1c2ccccc2C[C@H]1O please.
Output: 250
